# Activity values compiled below
System: HaCaT
Test: Cytotoxicity against human HaCaT cells at 12.5 uM after 24 hrs by MTT assay relative to control
Type: cell-based
Where a SMILES comes first, the peptide text is derived from it. [ ]: non-standard residue; d: D form.
measured endpoint: Activity (%)

[[record]]
compound = "CCCC[C@@H](NC(=O)[C@@H](CC(C)C)NC(=O)[C@H](Cc1ccccc1)NC(=O)[C@H](CCCCN)NC(=O)[C@H](CO)NC(=O)[C@H](Cc1ccccc1)NC(=O)[C@H](Cc1c[nH]c2ccccc12)NC(=O)[C@@H]1CCCN1C(=O)[C@@H](NC(=O)[C@@H](N)Cc1ccccc1)C(C)C)C(=O)N[C@@H](CCCNC(=N)N)C(=O)NC(C(=O)N[C@@H](CC(C)C)C(N)=O)[C@@H](C)CC (single isomer, unassigned)"
measured_value = 39.96

[[record]]
compound = "CC[C@H](C)[C@H](NC(=O)[C@H](CCCNC(=N)N)NC(=O)[C@H](Cc1c[nH]c2ccccc12)NC(=O)[C@@H](CC(C)C)NC(=O)[C@H](Cc1ccccc1)NC(=O)[C@H](CCCCN)NC(=O)[C@H](CO)NC(=O)[C@H](Cc1ccccc1)NC(=O)[C@H](Cc1c[nH]c2ccccc12)NC(=O)[C@@H]1CCCN1C(=O)[C@@H](NC(=O)[C@@H](N)Cc1ccccc1)C(C)C)C(=O)N[C@@H](CC(C)C)C(N)=O (H-FVPWFSKF[dL]WRIL-NH2)"
measured_value = 0

[[record]]
compound = "CC[C@H](C)C(NC(=O)[C@H](CCCNC(=N)N)NC(=O)[C@H](CCCCN)NC(=O)[C@@H](CC(C)C)NC(=O)[C@H](Cc1ccccc1)NC(=O)[C@H](CCCCN)NC(=O)[C@H](CO)NC(=O)[C@H](Cc1ccccc1)NC(=O)[C@H](Cc1c[nH]c2ccccc12)NC(=O)[C@@H]1CCCN1C(=O)[C@@H](NC(=O)[C@@H](N)Cc1ccccc1)C(C)C)C(=O)N[C@@H](CC(C)C)C(N)=O (single isomer, unassigned)"
measured_value = 49.3

[[record]]
compound = "CC[C@H](C)C(NC(=O)[C@H](CCCNC(=N)N)NC(=O)[C@@H](CCCCN)NC(=O)[C@@H](CC(C)C)NC(=O)[C@H](Cc1ccccc1)NC(=O)[C@H](CCCCN)NC(=O)[C@H](CO)NC(=O)[C@H](Cc1ccccc1)NC(=O)[C@H](Cc1c[nH]c2ccccc12)NC(=O)[C@@H]1CCCN1C(=O)[C@@H](NC(=O)[C@@H](N)Cc1ccccc1)C(C)C)C(=O)N[C@@H](CC(C)C)C(N)=O (single isomer, unassigned)"
measured_value = 0

